test system: CSNK1E; conditions: concentration: 1 μM, replicates: in singlicate; n = 1
Consider the following compounds; for each one, report its %Inh.
Entry format: amount then unit.

Query: Give the reported %Inh for COc1cccc(NC(=O)NC2CCN(c3ccnc(Nc4cc(OC)c(OC)c(OC)c4)n3)C2)c1 (stereo not drawn) [GSK1379763] (system: CSNK1E).
Reply: 0%

Query: Give the reported %Inh for CC(C)c1nc(-c2cccc(NS(=O)(=O)c3c(F)cccc3F)c2F)c(-c2ccnc(Nc3ccc(N4CCOCC4)nc3)n2)s1 [GSK2008607] (system: CSNK1E).
Reply: 4%

Query: Give the reported %Inh for Nc1n[nH]c2cnc(-c3ccccc3)cc12 [SB-642124] (system: CSNK1E).
Reply: 16%

Query: Give the reported %Inh for COc1ccc(Nc2nccc(NCCNC(=O)c3cc4ccccc4s3)n2)cc1 [GSK1379896] (system: CSNK1E).
Reply: 16%

Query: Give the reported %Inh for O=C(Nc1ccccc1F)NC1CCN(c2ccnc(Nc3ccc(F)cc3)n2)CC1 [GSK1379800] (system: CSNK1E).
Reply: 60%

Query: Give the reported %Inh for C[C@@H](Oc1cc(-n2cnc3cc(-c4ccnc(NCCS(C)(=O)=O)c4)ccc32)sc1C(N)=O)c1ccccc1Cl [GSK907232] (system: CSNK1E).
Reply: 17%

Query: Give the reported %Inh for Fc1ccc(-c2ncn(C3CCNCC3)c2-c2ccnc(Oc3ccc(-c4ccccc4)cc3)n2)cc1 [SB-245391] (system: CSNK1E).
Reply: 99.5%

Query: Give the reported %Inh for Cc1ccc(C(=O)Nc2ccc(Nc3ccnc4cc(-c5nccs5)ccc34)cc2O)cc1.Cl [GW494702] (system: CSNK1E).
Reply: 8%

Query: Give the reported %Inh for FC(F)(F)c1ccc(/C=C/c2cncnc2Nc2ccc3[nH]c(Cc4ccccc4)nc3c2)cc1 [GW709199] (system: CSNK1E).
Reply: 28%

Query: Give the reported %Inh for Cc1ccc(C)c(NC(=O)NC2CCN(c3ccnc(Nc4ccc(F)cc4)n3)C2)c1 (stereo not drawn) [GSK1379720] (system: CSNK1E).
Reply: 11%

Query: Give the reported %Inh for CC(C)(C)c1ccc2nccc(Nc3cccc(O)c3)c2c1 [GW856795] (system: CSNK1E).
Reply: 0%

Query: Give the reported %Inh for CCc1ccc(-c2ccc3c(c2)-c2c(cnn2C)S(=O)(=O)N3C)cc1 (system: CSNK1E).
Reply: 1%

Query: Give the reported %Inh for O=C(Nc1n[nH]c2cc(-c3ccoc3)ccc12)C1CC1 [SB-738481] (system: CSNK1E).
Reply: 0%

Query: Give the reported %Inh for Cl.c1ccc(-c2ccc3c(Nc4ccc5[nH]ncc5c4)ccnc3c2)nc1 [GW440137] (system: CSNK1E).
Reply: 41%

Query: Give the reported %Inh for Cl.Cl.NCC(NC(=O)c1cc(-c2ccccc2)c(-c2ccnc3[nH]ccc23)s1)c1ccccc1 (stereo not drawn) [GSK1321561] (system: CSNK1E).
Reply: 99.9%

Query: Give the reported %Inh for CSc1cccc2c(-c3ccncn3)c(-c3ccc(F)cc3)nn12 [GW514786] (system: CSNK1E).
Reply: 69%

Query: Give the reported %Inh for COc1cc(Nc2ncc3c(C)nc(-c4cc5ccccc5[nH]4)n3n2)cc(OC)c1OC [GW869516] (system: CSNK1E).
Reply: 15%

Query: Give the reported %Inh for COc1ccc(Nc2nccc(N3CCC(NC(=O)Nc4cccc(OC)c4)C3)n2)cc1 (stereo not drawn) [GSK1379742] (system: CSNK1E).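 Note: KINOMEscan kinase panel screen.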
Reply: 34%
